Target: T1, cynomolgus monkey serum albumin (cynomolgus monkey, UniProt A2V9Z4 25-608)
T1 construct: also called cyno albumin; CSA
Test: SPR (Biacore 3000), cyno albumin on chip, Fc-ABDEG fusion, pH 7.4
ENDPOINT LABEL: R0 pH 7.4
Write the quantity with the unit trailing the number.

Input line: Supply recorded R0 pH 7.4 for 11C03 CDR2-V7 fused at the C-terminus of Fc-ABDEG (Fc fusion, not shown: a dimerising Fc or GST; small tags and cut ends) QLQVVESGGGLVQAGGSLRLSCAASERTFVAYPMGWFRQAPEKEREFVAGISWFAAATTDYADSVEGRFTISRDNAKNTAYLQMNNLKPEDTAVYYCAISHQLPGGRPGRDMDSYSYWGHGTQVTVSS here.
Output line: 1.09 RU
